Test system: AVA5 cell line
assayComment: MTS Cell Viability
measurementConditions: 10 μM
outcomeMeasure: MTS Cell Viability
Enter a number only.

Endpoint output: MTS Cell Viability of O=c1cc(Sc2ccccc2Cl)c2cc(F)ccc2o1 [compound 894] . Value?
81.24

Same again, this time with O=c1cc(Sc2ccccc2F)c2cc(F)ccc2o1 [compound 904]
86.22

Check COc1ccc2oc(=O)cc(Sc3ccc(F)cc3F)c2c1 [compound 830] too.
98.85

----------
Test system: AVA5 cells
assayComment: Secondary dose-response assay: cytotoxicity (CC50)
outcomeMeasure: CC50

Quick check: CC50 of Cc1cc(C)cc(Sc2c(Sc3cccc(Cl)c3)c3ccccc3oc2=O)c1 ?
> 300 µM

----------
Tested on: AVA5 cell line
assayComment: ATP Cell Viability
measurementConditions: 10 μM
Where ATP Cell Viability equals or exceeds 80, the correct label is Criterion met; where it does not, the label is Criterion not met.

Observe how each entry below is paired with its result.
{"givenSmiles": "O=c1cc(Sc2ccccc2F)c2cc(F)ccc2o1", "targetOrSystem": "AVA5 cell line", "assignedLabel": "Criterion not met"}
{"givenSmiles": "O=c1cc(Sc2ccc(F)cc2F)c2cc(F)ccc2o1", "targetOrSystem": "AVA5 cell line", "assignedLabel": "Criterion met"}
{"givenSmiles": "COc1ccc2oc(=O)cc(Sc3ccc(F)cc3F)c2c1", "targetOrSystem": "AVA5 cell line", "assignedLabel": "Criterion met"}
{"givenSmiles": "COc1ccc2oc(=O)cc(Sc3ccccc3F)c2c1", "targetOrSystem": "AVA5 cell line", "assignedLabel": "Criterion not met"}
{"givenSmiles": "O=c1cc(Sc2ccccc2Cl)c2cc(F)ccc2o1", "targetOrSystem": "AVA5 cell line", "assignedLabel": "Criterion not met"}
{"givenSmiles": "O=c1cc(Sc2c(Cl)cccc2Cl)c2cc(F)ccc2o1", "targetOrSystem": "AVA5 cell line", "assignedLabel": "Criterion not met"}

Now let's try a different one.
Has O=c1cc(Sc2ccc(F)cc2Cl)c2cc(F)ccc2o1 a recorded ATP Cell Viability greater than or equal to 80?
Criterion met

----------
assayComment: Primary screen cytotoxicity: neutral red dye uptake
Assay type: cell-based, human
measurementConditions: human; toxicity control, no antiviral activity; read-out: approximate CC90
Method: Primary in vitro anti-HCV screen. The antiviral activity of test compounds were assayed in the stably HCV RNA-replicating cell line, AVA5, derived by transfection of the human hepatoblastoma cell line, Huh7 (Blight, et al., 2000, Science 290: 1972). The test compounds were added to dividing cultures once daily for three days. The media was changed with each addition of the compounds. Cultures generally start the assay at 30–50% confluence and reach confluence during the last day of treatment. […]
outcomeMeasure: CC90 at 3 days

Give the measured CC90 at 3 days of NC(=O)c1ncn([C@@H]2O[C@H](CO)[C@@H](O)[C@H]2O)n1 [Ribavirin, ribavirin, reference compound] .
~100 µM

----------
System: AVA5 cell line
assayComment: MTS Cell Viability
measurementConditions: 5 μM
I would appreciate it if you labelled entries Fulfilled when MTS Cell Viability is 90 or higher, otherwise Not fulfilled.

Would you say COc1ccc2oc(=O)cc(Sc3ccccc3F)c2c1 [compound 824] shows MTS Cell Viability at minimum 90?
Fulfilled

----------
Let's look at some compounds and their measured MTS Cell Viability.
Tested on: AVA5 cell line
assayComment: MTS Cell Viability
measurementConditions: 10 μM

{"compound": "O=c1cc(Sc2cc(Cl)ccc2Cl)c2cc(F)ccc2o1 [compound 901]", "MTS Cell Viability": 86.10}

Identify the measured MTS Cell Viability of COc1ccc2oc(=O)cc(Sc3ccccc3F)c2c1 [compound 824] for AVA5 cell line.
84.15

Next entry: O=c1cc(Sc2ccc(F)cc2Cl)c2cc(F)ccc2o1 [compound 899]
85.37

Then O=c1cc(Sc2c(Cl)cccc2Cl)c2cc(F)ccc2o1 [compound 902] ?
84.52

Okay, and O=c1cc(Sc2ccc(F)cc2F)c2cc(F)ccc2o1 [compound 910] ?
79.43
